From: ChEMBL document CHEMBL3407376

biological target: Falcipain 2 (Plasmodium falciparum, UniProt Q9N6S8); assay: Inhibition of Plasmodium falciparum recombinant falcipain-2 using ZFR-AMC as substrate after 30 mins by fluorometric assay
pKi: −log10 of the molar value.
metric: pKi

A: CC(C)C[C@H](NC(=O)[C@H](CC(C)C)NC(=O)N1CCOCC1)C(=O)N[C@H](C(=O)N1CCC[C@H]1COc1ccc(F)cc1)c1ccccc1
B: CC(C)C[C@H](NC(=O)CN1CCC(O)CC1)C(=O)N[C@@H](CC(C)C)C(=O)N[C@@H](Cc1c[nH]c2ccccc12)C(=O)N1CCC[C@H]1COc1ccc(F)cc1
C: CC(C)C[C@H](NC(=O)[C@H](CC(C)C)NC(=O)N1CCCCC1)C(=O)N[C@@H](Cc1c[nH]c2ccccc12)C(=O)N1CCN=C1COc1ccc(F)cc1
Exam item: Rank the 3 compounds: largest pKi first, smallest last. Put the labels in the order asked and list them.
Marked response: C, A, B
(C: 6.70, A: 5.96, B: 5.60)

----------
assay: Selectivity ratio of IC50 for CHO cells to IC50 for Plasmodium falciparum; assay type: ADME, cell-based; details: hamster, read-out: Ratio IC50
metric: selectivity ratio
Answer with the value's number alone.

The measured selectivity ratio associated with `CC(C)C[C@H](NC(=O)[C@H](CC(C)C)NC(=O)N1CCOCC1)C(=O)N[C@H](C(=O)N1CCC[C@H]1COc1ccc(F)cc1)c1ccccc1` reads 150

----------
Target: UniProt:Q9N6S8
Sequence (Q9N6S8 whole entry): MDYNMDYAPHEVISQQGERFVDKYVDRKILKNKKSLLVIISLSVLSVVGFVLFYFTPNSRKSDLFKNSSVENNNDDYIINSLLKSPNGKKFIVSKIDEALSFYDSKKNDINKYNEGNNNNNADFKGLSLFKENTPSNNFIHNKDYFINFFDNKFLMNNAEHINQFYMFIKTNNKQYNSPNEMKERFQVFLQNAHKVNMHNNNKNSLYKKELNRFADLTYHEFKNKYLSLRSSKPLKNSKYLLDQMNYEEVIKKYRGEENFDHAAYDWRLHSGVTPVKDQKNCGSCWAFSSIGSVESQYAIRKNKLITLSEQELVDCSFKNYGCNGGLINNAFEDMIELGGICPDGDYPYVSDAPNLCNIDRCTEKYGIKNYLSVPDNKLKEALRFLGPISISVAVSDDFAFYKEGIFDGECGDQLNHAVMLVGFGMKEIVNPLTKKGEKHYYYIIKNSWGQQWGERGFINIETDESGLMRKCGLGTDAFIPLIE
Assay: Inhibition of Plasmodium falciparum recombinant falcipain-2 using ZFR-AMC as substrate after 30 mins by fluorometric assay
pKi: −log10 of the molar value.
metric: pKi

Solved cases (2 shown):
chem.smiles	pKi
CC(C)C[C@H](NC(=O)c1ccco1)C(=O)N[C@@H](CC(C)C)C(=O)N[C@@H](Cc1ccccc1)C(=O)NNc1ccccc1	6.22
CC(C)C[C@H](NC(=O)CN1CCN(C)CC1)C(=O)N[C@@H](CC(C)C)C(=O)N[C@@H](Cc1c[nH]c2ccccc12)C(=O)N1CCN=C1COc1ccc(F)cc1	4.97

1: CC(C)C[C@H](NC(=O)CN1CCC(CCO)CC1)C(=O)N[C@@H](CC(C)C)C(=O)N[C@@H](Cc1c[nH]c2ccccc12)C(=O)N1CCC[C@H]1COc1ccc(F)cc1
2: COc1ccc(OC[C@@H]2CCCN2C(=O)[C@H](Cc2ccccc2)NC(=O)[C@H](CC(C)C)NC(=O)[C@H](CC(C)C)NC(=O)N2CCCCC2)cc1
3: CC(C)C[C@H](NC(=O)[C@H](CC(C)C)NC(=O)N1CCOCC1)C(=O)N[C@@H](Cc1c[nH]c2ccccc12)C(=O)N1CCN=C1COc1ccc(F)cc1
4: CC(C)C[C@H](NC(=O)CN1CCC(CCO)CC1)C(=O)N[C@@H](CC(C)C)C(=O)N[C@@H](Cc1c[nH]c2ccccc12)C(=O)N1CCN=C1COc1ccc(F)cc1
Exam item: Rank items: key pKi, increasing. Output the labels ranked as instructed.
Marked response: 4, 1, 3, 2
